Entry source: ChEMBL document CHEMBL3414528

- Study System: Alpha-1B adrenergic receptor (Rattus norvegicus, UniProt P15823)
- Sequence (P15823 whole entry): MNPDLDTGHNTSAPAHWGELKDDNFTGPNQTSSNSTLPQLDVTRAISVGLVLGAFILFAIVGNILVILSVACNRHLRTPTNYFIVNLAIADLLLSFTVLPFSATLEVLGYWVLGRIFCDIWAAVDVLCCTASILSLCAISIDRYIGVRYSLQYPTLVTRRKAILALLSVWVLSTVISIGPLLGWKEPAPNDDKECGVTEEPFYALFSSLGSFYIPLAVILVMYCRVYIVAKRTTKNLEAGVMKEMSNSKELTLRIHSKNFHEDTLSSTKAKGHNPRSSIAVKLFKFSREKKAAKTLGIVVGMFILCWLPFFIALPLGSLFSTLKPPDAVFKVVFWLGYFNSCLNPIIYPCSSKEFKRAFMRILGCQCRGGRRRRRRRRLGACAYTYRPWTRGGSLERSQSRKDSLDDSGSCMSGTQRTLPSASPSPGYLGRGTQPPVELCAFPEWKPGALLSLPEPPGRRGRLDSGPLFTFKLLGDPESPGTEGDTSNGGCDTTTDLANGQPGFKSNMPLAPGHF
- Test Summary: Antagonist activity at Sprague-Dawley rat spleen adrenergic alpha-1B receptor after 20 mins
- Protocol Conditions: read-out: pA2 (converted)
Attribute: Kb
Property: Kb (nM)

- COc1ccccc1N1CCN(CCCNC(=O)c2cc3cc(O)ccc3[nH]2)CC1: 155
- COc1cc2nc(N3CCN(C(=O)C4CCCO4)CC3)nc(N)c2cc1OC (stereo not given) [TERAZOSIN]: 2.57
- COc1ccccc1N1CCN(CCCNC(=O)c2cc3ccc(Br)cc3[nH]2)CC1: 209
- COc1ccccc1N1CCN(CC(O)COc2cccc3ccccc23)CC1 (stereo not given) [NAFTOPIDIL]: 178
- COc1ccccc1N1CCN(CCCNC(=O)CCc2c[nH]c3ccccc23)CC1: 219
